Just for reference, patent US20070219214A1 is where these values come from.

Reported values of pA2 data for NK1 for individual entries
- TARGET SYSTEM: human NK1-receptor (Homo sapiens, UniProt P25103)
- Sequence (P25103 whole entry): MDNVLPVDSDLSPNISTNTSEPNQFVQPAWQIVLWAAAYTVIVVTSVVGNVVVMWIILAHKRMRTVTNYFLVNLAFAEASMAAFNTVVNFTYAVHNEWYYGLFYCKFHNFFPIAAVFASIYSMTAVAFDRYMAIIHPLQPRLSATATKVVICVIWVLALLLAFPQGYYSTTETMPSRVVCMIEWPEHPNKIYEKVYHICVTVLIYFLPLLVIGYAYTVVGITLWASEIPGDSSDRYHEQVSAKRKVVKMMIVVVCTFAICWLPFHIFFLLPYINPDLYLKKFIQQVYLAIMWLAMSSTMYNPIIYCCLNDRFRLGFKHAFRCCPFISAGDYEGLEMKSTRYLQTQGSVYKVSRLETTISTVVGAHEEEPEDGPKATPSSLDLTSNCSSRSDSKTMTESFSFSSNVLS
- TEST NAME: Functional cellular test, Ca2+ measurements using FLIPR for NK1 activity
- Type: cell-based
- Parameters: expressed in transfected cells; host or cells: CHO fibroblast cells
- EXPERIMENTAL SETUP: CHO cells, human NK1, FLIPR Ca2+, agonist substance P 10^-8 M
MEASURE: pA2 data for NK1

{"columns": ["SMILES REPRESENTATION", "ASSAY VALUE"],
 "data": [
  ["CN(C)C(=O)C1(N2CCCCC2)CCN(CC[C@H](CN(C)C(=O)c2ccc(F)c(Cl)c2)c2ccc(Cl)c(Cl)c2)CC1", 7.1],
  ["CN(C)C(=O)C1(N2CCCCC2)CCN(CC[C@H](CN(C)C(=O)c2cc(F)cc(F)c2)c2ccc(Cl)c(Cl)c2)CC1", 8.0],
  ["CN(C)C(=O)C1(N2CCCCC2)CCN(CC[C@H](CN(C)C(=O)c2ccc(F)cc2F)c2ccc(Cl)c(Cl)c2)CC1", 7.5],
  ["CN(C)C(=O)C1(N2CCCCC2)CCN(CC[C@H](CN(C)C(=O)c2cc(C#N)c3ccccc3c2)c2ccc(Cl)c(Cl)c2)CC1", 7.9],
  ["CN(C)C(=O)C1(N2CCCCC2)CCN(CC[C@H](CN(C)C(=O)c2ccc(F)c(F)c2)c2ccc(Cl)c(Cl)c2)CC1", 7.3],
  ["CN(C)C(=O)C1(N2CCCCC2)CCN(CC[C@H](CN(C)C(=O)c2cc(F)ccc2F)c2ccc(Cl)c(Cl)c2)CC1", 7.2]
]}
